- measured_target: T1, mouse vascular endothelial growth factor receptor-2 Fc chimera (Flk-1-Fc) (mouse, UniProt P35918 20-762)
- T1 construct: Bought from R&D Systems; also called mouse VEGFR-2; not shown: Fc part of the purchased chimera, not specified
- T1 sequence (P35918 20-762, change not shown): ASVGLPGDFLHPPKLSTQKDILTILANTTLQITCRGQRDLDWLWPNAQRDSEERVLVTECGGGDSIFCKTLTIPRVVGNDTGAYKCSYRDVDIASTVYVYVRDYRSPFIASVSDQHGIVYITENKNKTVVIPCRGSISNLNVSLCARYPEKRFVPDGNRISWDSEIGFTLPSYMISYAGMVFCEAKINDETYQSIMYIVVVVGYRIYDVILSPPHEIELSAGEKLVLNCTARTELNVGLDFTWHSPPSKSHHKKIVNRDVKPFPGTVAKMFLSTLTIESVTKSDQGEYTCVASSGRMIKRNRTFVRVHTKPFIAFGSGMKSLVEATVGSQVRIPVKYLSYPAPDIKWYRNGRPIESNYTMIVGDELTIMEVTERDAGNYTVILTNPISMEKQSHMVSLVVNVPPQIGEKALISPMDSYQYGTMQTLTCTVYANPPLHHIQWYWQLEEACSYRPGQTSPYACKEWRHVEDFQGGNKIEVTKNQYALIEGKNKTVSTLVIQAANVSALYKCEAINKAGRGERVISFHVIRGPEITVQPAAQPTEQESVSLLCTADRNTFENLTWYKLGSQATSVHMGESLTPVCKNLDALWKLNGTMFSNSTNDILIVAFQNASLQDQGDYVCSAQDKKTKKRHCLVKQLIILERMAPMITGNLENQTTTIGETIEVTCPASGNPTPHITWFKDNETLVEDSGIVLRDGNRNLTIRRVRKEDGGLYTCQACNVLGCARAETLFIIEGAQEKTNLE
- protocol_details: radioactive equilibrium binding assay, 1 nM Flk-1-Fc, % of input bound
observed_property: Binding to 1 nM Flk-1, % (%)

(P) E6 (designed binder, 10Fn3 clone, Del 1-8) EVVAATPTSLLISWRHPHFPTRYYRITYGETGGNSPVQEFTVPLQPPTATISGLKPGVDYTITGYAVTDGWNGRLLSIPISINYRT
(Q) C7 (designed binder, 10Fn3 clone, Del 1-8) EVVAATPTSLLISWRHPHFPTRYYRITYGETGGNSPVQEFTVPLQPPTATISGLKPGVDYTITGYAVTHERNGRVLMTPISINYRT
(R) A7 (designed binder, 10Fn3 clone, Del 1-8) EVVAATPTSLLISWRHPHFPTRYYRITYGETGGNSPVQEFTVPLQPPTATISGLKPGVDYTITGYAVTDGPNNRELIVPISINYRT
Prompt: # desc sort on Binding to 1 nM Flk-1, % across 3 binders # output: labels, in the requested order
Response: Q, P, R
